- Test system: Saccharomyces cerevisiae
- protocol text: protein stability index of tFT-peptide fusion (C-terminal peptide) (PSI (0-1 scale)); higher = more stable (slower turnover)
- assay setup: genetic background: wild type; temperature: 37 C
Could you label it YES if measured protein stability index is 0.5 or higher, and NO otherwise?

Please review the entries below; each comes with its answer.
chain sequence: VYCQRFMLLFTP
discrete label: YES
--
chain sequence: LLILIVNLRRIG
discrete label: NO
--
chain sequence: VYVSRTRPFSLY
discrete label: YES
--
chain sequence: TKDFVIKKTKIS
discrete label: NO

Incoming: Test whether the sequence VLFFLVTSSVYF records protein stability index of 0.5 or higher.
Outgoing: NO

Incoming: Test whether the sequence QDFFYCLLVATS records protein stability index of 0.5 or higher.
Outgoing: NO

Incoming: Test whether the sequence SLEACYCFVVLV records protein stability index of 0.5 or higher.
Outgoing: NO

Incoming: Test whether the sequence GVVCWVVVFGGW records protein stability index of 0.5 or higher.
Outgoing: NO

----------
What protein stability index was measured for each of the following?
- Test system: Saccharomyces cerevisiae;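 note: PSI is a weighted mean of sequencing reads over stability bins, variants kept only with over 10 reads, mCherry proximal and sfGFP distal, peptide attached via GGGS linker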
- protocol text: protein stability index of tFT-peptide fusion (C-terminal peptide) (PSI (0-1 scale)); higher = more stable (slower turnover)
- assay setup: genetic background: wild type; temperature: 37 C
Give bare numbers.

Examples with their reported protein stability index follow.
chain sequence: RLVIFITRYLIS
protein stability index: 0.275
//
chain sequence: QARQLEMYMVVF
protein stability index: 0.544
//
chain sequence: CACAVPFLLLFF
protein stability index: 0.494
//
chain sequence: RLGIRCLYLRFI
protein stability index: 0.363
//
chain sequence: VYVLVFNMENIS
protein stability index: 0.585

Quick batch: protein stability index for everything below.
1. THRAVGIGLRCC
2. SYVLLQSYVSLV
3. VVLWWWVVARDL
4. VSVFWVFLLVAG
5. FFIMFFDFWGYF

Outgoing:
0.401
0.613
0.514
0.383
0.57

Quick batch: protein stability index for everything below.
1. SIFFLVPLVFLS
2. GCRLRHRLVRIV
3. FVVIFRFSRFSA
4. DFHLPWPVALVW
5. LPSPLLFLPALF
6. EWRPYKRNKQSS

Outgoing:
[0.216, 0.201, 0.494, 0.24, 0.614, 0.411]

Quick batch: protein stability index for everything below.
1. TIRKCIIKWIKI
2. LLFPRVLVLCFS
3. LYCGLIFFLRGV

Outgoing:
0.398
0.116
0.612

Quick batch: protein stability index for everything below.
1. WFSVIMLCYILP
2. LFFFFLPHLILL
3. ASGVFSRLVLVS
4. VFFMFVFFPFPG
5. GRAVGLANFTIK
6. LMLGARVSRRIH
7. AYFPSQRVHHLM
8. TFRPWPLHILAL

Outgoing:
1. 0.248
2. 0.395
3. 0.282
4. 0.538
5. 0.701
6. 0.506
7. 0.374
8. 0.201

Quick batch: protein stability index for everything below.
1. LSFFDYVLLQIA
2. RLARRGGGWGPG
3. FCFYLLFLGFTR
4. FFCSLIISRFLL
5. LVGVLLAVWSVV
6. LHFHIYLIISPF
7. SWMSQFSILLTA

Outgoing:
0.317
0.728
0.523
0.299
0.338
0.261
0.199

Quick batch: protein stability index for everything below.
1. GLLVFRCINLRC
2. TFLFPLPFLFFI

Outgoing:
1: 0.471; 2: 0.101

Quick batch: protein stability index for everything below.
1. ASAYCCMITRLN
2. CNIYVLIIIKKY
3. FKFGVFDFRFLC
4. VYIVLLLLFLRP
5. SRSVLLCFCWLC
6. CSLRLCVRGAIV

Outgoing:
1. 0.174
2. 0.325
3. 0.115
4. 0.395
5. 0.346
6. 0.675

Quick batch: protein stability index for everything below.
1. RWELASKCRLCV
2. CVYGILLLVDVR
3. VVGFVFSCWWSW
4. WGFSVRFVLSVF

Outgoing:
[0.304, 0.143, 0.46, 0.115]
